- assay-procedure: chemical genetic growth profiling, strain panel (AID 1159580);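 further: tested at 20 µM; growth read once vehicle control cultures reached saturation at 30 °C; 1 = growth at the plate median or of vehicle wells; lower values mean less growth of the strain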
- conditions: S. cerevisiae deletion strains, growth OD, locus YDR392W, strain spt3
About 2,000 (36%) of roughly 5,500 compounds were called active. Another 18% or so got no clear call; they are omitted. No stated cut-off is given here; in the data, active means normalized growth mostly below about 0.91 (no sharp cut-off); inconclusive means no clear call, values can overlap the other calls; inactive means mostly above about 0.92. The list shows a part of the results.
Returns: one label drawn from label 1 (active), label 0 (inactive)

Test call, this molecule: NC(CO)C(=O)NNCc1ccc(O)c(O)c1O (stereo unspecified)
label 0

Test call, this molecule: CCOC(=O)Nc1nc2ccccc2[nH]1
label 0

Test call, this molecule: C[N+]1(C)C2CC(OC(=O)[C@@H](CO)c3ccccc3)CC1C1OC12 (stereo partly specified)
label 0

Test call, this molecule: C=C1CCC2C(CC2(C)C)C(=C)CC/C1=N\O (stereo unspecified)
label 0

Test call, this molecule: CC[C@H](C)C(=O)O[C@H]1CCC=C2C=C[C@H](C)C(CCC3C[C@@H](O)CC(=O)O3)[C@H]21 (stereo partly specified)
label 0

Test call, this molecule: CCC(C)(C)C(=O)O[C@H]1C[C@@H](C)C=C2C=C[C@H](C)[C@H](CC[C@@H]3C[C@@H](O)CC(=O)O3)[C@H]21
label 1

Test call, this molecule: Cc1ccc(C)c(OCCCC(C)(C)C(=O)O)c1
label 1

Test call, this molecule: COC(=O)C(C)c1ccc(C(=O)c2cccs2)cc1 (stereo unspecified)
label 0

Test call, this molecule: CC[C@H](C)C(=O)O[C@H]1C[C@@H](C)C=C2C=C[C@H](C)[C@H](CC[C@@H]3C[C@@H](O)CC(=O)O3)[C@H]21
label 0

Test call, this molecule: CO/N=C(\C(=O)N[C@@H]1C(=O)N2C(C(=O)O)=C(COC(C)=O)CS[C@H]12)c1csc(N)n1
label 0

Test call, this molecule: CC(=O)OCC[C@H](C)CCC=C(C)C
label 0

Test call, this molecule: O=C1[C@H](CCC(O)c2ccc(F)cc2)[C@@H](c2ccc(O)cc2)N1c1ccc(F)cc1 (stereo partly specified)
label 0

Test call, this molecule: CO/N=C(\C(=O)NC1C(=O)N2C(C(=O)OC(C)OC(C)=O)=C(COC(N)=O)CSC12)c1ccco1 (stereo unspecified)
label 0

Test call, this molecule: NC(=O)c1cccc(N)c1
label 0

Test call, this molecule: CC(C)NCC(O)COc1cccc2ccccc12 (stereo unspecified)
label 0

Test call, this molecule: COC(=O)[C@@H]1OC(=O)[C@H]2O[C@@]23[C@@]1(C)CCC1[C@@]2(C)CCC(=O)C(C)(C)C2C[C@@H](OC(C)=O)[C@]13C (stereo partly specified)
label 0

Test call, this molecule: COC(=O)C(O)c1ccccc1 (stereo unspecified)
label 0

Test call, this molecule: CO/N=C(\C(=O)N[C@@H]1C(=O)N2C(C(=O)O)=C(CSc3nc(=O)c(O)nn3C)CS[C@H]12)c1csc(N)n1
label 0

Test call, this molecule: C#CCCCCCCCCCCCC(O)CC(O)COC(C)=O (stereo unspecified)
label 1

Test call, this molecule: CCCCN1CCCCC1C(=O)Nc1c(C)cccc1C (stereo unspecified)
label 0

Test call, this molecule: CC(=O)OCC(OC(C)=O)C(OC(C)=O)C(OC(C)=O)C(OC(C)=O)C(COC(C)=O)OC(C)=O (stereo unspecified)
label 0
